procedure text: Plasma pharmacokinetics of LMP776, non-compartmental
Format: in vivo, human
experimental parameters: human, plasma, intravenous; DL1, 1 mg/m2, n=1
readout kind: AUC(0-inf) (µg·h/mL)
Express your answer in µg·h/mL, writing the number without its unit.

Per the records, this compound ( COc1cc2c3c(n(CCCn4ccnc4)c(=O)c2cc1OC)-c1cc2c(cc1C3=O)OCO2 [LMP776] ) has AUC(0-inf) equal to 0.88

----------
procedure text: Plasma pharmacokinetics of LMP776, non-compartmental
Assay type: in vivo, human
experimental parameters: human, plasma, intravenous; DL8, 16 mg/m2, n=7
readout kind: AUC(0-inf)
Value and unit, in that order.

Per the records, this compound ( COc1cc2c3c(n(CCCn4ccnc4)c(=O)c2cc1OC)-c1cc2c(cc1C3=O)OCO2 [LMP776] ) has AUC(0-inf) equal to 8920 ng·h/mL

----------
procedure text: Plasma pharmacokinetics of LMP776, non-compartmental
Assay type: in vivo, human
experimental parameters: human, plasma, intravenous; DL4, 4.5 mg/m2, n=3
readout kind: Tmax (h)
Express your answer in h, writing the number without its unit.

Per the records, this molecule ( `COc1cc2c3c(n(CCCn4ccnc4)c(=O)c2cc1OC)-c1cc2c(cc1C3=O)OCO2` ) has Tmax equal to 1

----------
procedure text: Plasma pharmacokinetics of LMP744, non-compartmental
Assay type: in vivo, human
experimental parameters: human, plasma, intravenous; DL5, 96 mg/m2, n=1
readout kind: AUC(0-inf) (ng·h/mL)
Express your answer in ng·h/mL, writing the number without its unit.

Per the records, this compound ( `COc1cc2c3c(n(CCCNCCO)c(=O)c2cc1OC)-c1cc2c(cc1C3=O)OCO2` ) has AUC(0-inf) equal to 1860

----------
procedure text: Plasma pharmacokinetics of LMP744, non-compartmental
Assay type: in vivo, human
experimental parameters: human, plasma, intravenous; DL7, 260 mg/m2, n=10
readout kind: AUC(0-t) (ng·h/mL)
Express your answer in ng·h/mL, writing the number without its unit.

Per the records, this molecule ( COc1cc2c3c(n(CCCNCCO)c(=O)c2cc1OC)-c1cc2c(cc1C3=O)OCO2 [LMP744] ) has AUC(0-t) equal to 3580

----------
procedure text: Plasma pharmacokinetics of LMP776, non-compartmental
Type: in vivo, human
experimental parameters: human, plasma, intravenous; DL8, 16 mg/m2, n=7
readout kind: AUC(0-t)
Value and unit, in that order.

Per the records, this compound ( `COc1cc2c3c(n(CCCn4ccnc4)c(=O)c2cc1OC)-c1cc2c(cc1C3=O)OCO2` ) has AUC(0-t) equal to 6170 ng·h/mL

----------
procedure text: Plasma pharmacokinetics of LMP744, non-compartmental
Type: in vivo, human
experimental parameters: human, plasma, intravenous; DL4, 48 mg/m2, n=1
readout kind: AUC(0-inf)
Value and unit, in that order.

Per the records, this compound ( COc1cc2c3c(n(CCCNCCO)c(=O)c2cc1OC)-c1cc2c(cc1C3=O)OCO2 [LMP744] ) has AUC(0-inf) equal to 800 ng·h/mL

----------
procedure text: Plasma pharmacokinetics of LMP776, non-compartmental
Format: in vivo, human
experimental parameters: human, plasma, intravenous, 9 mg/m2, DL6, 9 mg/m2, n=2; read-out: t1/2 (converted)
readout kind: half-life (h)
Express your answer in h, writing the number without its unit.

Per the records, this molecule ( `COc1cc2c3c(n(CCCn4ccnc4)c(=O)c2cc1OC)-c1cc2c(cc1C3=O)OCO2` ) has half-life equal to 31.4
